Experiment Notes: Quantitative High-Throughput drug screen in 47 multiple myeloma cell lines against the NCATS MIPE library collection: KMS28PE_JCRB cell viability assay (AID 1918983); further: nearly all actives have a fitted effect of over 35% in size
Recorded Conditions: KMS28PE multiple myeloma viability, CellTiter-Glo ATP, 48 h; series mostly up to 45.8 µM
Records with an inconclusive call do not appear. Active and inactive are the calls of the source. The call rests on the fitted dose curve; in most records, active means well fitted cell-killing curve with a large enough effect; inconclusive means small, poorly fitted or top-dose-only effect, or effect the other way; inactive means no such curve, though single readings can be large or run the other way.
Bench note: report the call from 1.0 = active, 0.0 = inactive

Cc1cn2c(-c3cn[nH]c3)cnc2c(Nc2ccc(C(=O)N3CCNCC3)cc2F)n1 :: 1.0
CCOc1ccccc1OCCNC(C)Cc1ccc(OC)c(S(N)(=O)=O)c1 (configuration not stated) :: 0.0

Can you look up the reported call for C1=CCOCc2cc(ccc2OCCN2CCCC2)Nc2nccc(n2)-c2cccc(c2)OCC1 for me?
1.0

Can you look up the reported call for CC1=C(CO)C(=O)O[C@@H]([C@@H](C)[C@H]2CC[C@H]3[C@@H]4C[C@H]5O[C@]56[C@@H](O)C=CC(=O)[C@]6(C)[C@@H]4CC[C@]23C)C1 for me?
1.0

###

Test system: HEK293
Experiment Notes: Cytotoxic Profiling of Annotated Libraries Using Quantitative High-Throughput Screening (AID 1296008); further: nearly all actives have a fitted effect of over 60% in size; on max response: on the % scale 0 is the no-effect control and ±100 the full control effect
Recorded Conditions: Five cell lines viability, CellTiter-Glo ATP luminescence, 48-72 h; hits give low values
Results filed as inconclusive are left out.
Observation Type: max response (%)
Respond numerically; units are % and should not be typed.

CN1c2cc(O)c(N=NC(N)=O)cc2CC1S(=O)(=O)O (stereo unspecified) :: 2.9
COc1ccc(-n2nc(C(N)=O)c3c2C(=O)N(c2ccc(N4CCCCC4=O)cc2)CC3)cc1 :: 2.24
C[C@H]1C[C@@H]2[C@@H]([C@@H](O)C[C@@]3(C)[C@H]2CC[C@]3(O)C(=O)CO)[C@@]2(C)C=CC(=O)C=C12 :: -9.41
CCCNC(=O)Nc1ccc(Oc2ncnc3cc(OC)c(OC)cc23)cc1Cl :: -15.3
Cn1c(CNc2ccc(C(=N)N)cc2)nc2cc(C(=O)N(CCC(=O)O)c3ccccn3)ccc21 :: -4.52
O=C(NCCS(=O)(=O)c1ccc(C(F)(F)F)cn1)c1ccc(Cl)cc1 :: -5.18
O=c1c2ccccc2nc2n1CCc1c-2[nH]c2ccccc12 :: -12.5
COC(=O)C[C@](O)(CCCC(C)(C)O)C(=O)O[C@@H]1C(OC)=C[C@]23CCCN2CCc2cc4c(cc2[C@H]13)OCO4 :: -7.61

So for CC1COC2(CCN(c3nc(=O)c4cc(C(F)(F)F)cc([N+](=O)[O-])c4s3)CC2)O1 (stereo unspecified) , the logged max response turned out to be 2.26

So for COc1cc(-c2nn(C3CCC(N4CCN(C(C)=O)CC4)CC3)c3ncnc(N)c23)ccc1NC(=O)c1cc2ccccc2n1C (stereo unspecified) , the logged max response turned out to be -12.7

So for Nc1nc(-c2nn(Cc3ccccc3F)c3ncccc23)nc(N)c1N1CCOCC1 , the logged max response turned out to be -2.05

###

Experiment Notes: qHTS Screen of the MIPE 4.0 Collection Against Ewings Sarcoma (EW8) (AID 1259255); further: nearly all actives have a fitted effect of over 35% in size; further: potency means the concentration at half of the fitted maximal effect;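 on viability: 100% = DMSO-treated cells and 0% = medium-only wells without cells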
Recorded Conditions: EW8 Ewing sarcoma viability, CellTiter-Glo, 48 h; series mostly up to 45.8 µM
Results filed as inconclusive are left out. The source made the active and inactive calls. The call rests on the fitted dose curve; in most records, active means well fitted inhibition curve with a large enough effect; inconclusive means small, poorly fitted or top-dose-only effect; inactive means no such curve, though single readings can be large or run the other way.
Observation Type: Potency

Nc1cccc(-c2cc3c(Oc4cccc(O)c4)ncnc3[nH]2)c1 :: 3320 nM (active)
CCN(CC)CCCCNc1ncc2cc(-c3cc(OC)cc(OC)c3)c(NC(=O)NC(C)(C)C)nc2n1 :: 18700 nM (active)
CC(=O)Nc1sc2c(c1-c1nc3ccccc3s1)CNC2 :: 16600 nM (active)
Cc1cn2cc(C(=O)N(C)CCO)cc(N[C@@H]3CCOc4cccc(C)c43)c2n1 :: inactive
C[C@]12CC[C@H](O)CC1=CCC1C2CC[C@]2(C)C(n3cnc4ccccc43)=CCC12 (some centres not stated) :: inactive

So for CN(C1CCc2c(c3ccccc3n2CC(=O)O)C1)S(=O)(=O)c1ccc(F)cc1 (configuration not stated) , the logged Potency turned out to be inactive

So for O=C(C=Cc1cccnc1)NCCCCC1CCN(C(=O)c2ccccc2)CC1 , the logged Potency turned out to be 7.4 nM (active)

So for OCCCNc1cc(-c2ccnc(Nc3cccc(Cl)c3)n2)ccn1 , the logged Potency turned out to be 148 nM (active)

So for CC(C)c1cc(C(=O)N2Cc3ccc(CN4CCN(C)CC4)cc3C2)c(O)cc1O , the logged Potency turned out to be 372 nM (active)

So for COc1cc2c(cc1-c1c(C)noc1C)ncc1[nH]c(=O)n([C@H](C)c3ccccn3)c12 , the logged Potency turned out to be 18700 nM (active)

So for CCS(=O)(=O)c1cccc(-c2cc(C(=O)NC3CCN(C)CC3)c(C)c3[nH]c4ncc(C)cc4c23)c1 , the logged Potency turned out to be 118 nM (active)

So for CC(=O)OCC(=O)[C@@]1(O)[C@H](C)C[C@H]2[C@@H]3C=C(C)C4=Cc5c(cnn5-c5ccccc5)C[C@]4(C)[C@@H]3[C@@H](O)C[C@@]21C , the logged Potency turned out to be 7430 nM (active)

So for O=C(Nc1cc(C(F)(F)F)cc(C(F)(F)F)c1)c1cc(Cl)ccc1O , the logged Potency turned out to be 2350 nM (active)

So for Nc1ncnc2c1c(-c1cnc3[nH]ccc3c1)nn2C1CCCC1 , the logged Potency turned out to be 2090 nM (active)

So for Clc1cccc(-c2nnnn2Cc2cccnc2)c1Cl , the logged Potency turned out to be inactive

So for COc1ccc2c(c1)CC[C@@H](CN(C)CC(=O)O)[C@H]2c1ccccc1 , the logged Potency turned out to be 2350 nM (active)

So for CCCCCCCCCC(=O)N[C@@H](Cc1c[nH]c2ccccc12)C(=O)N[C@H](CC(N)=O)C(=O)N[C@@H](CC(=O)O)C(=O)N[C@@H]1C(=O)NCC(=O)N[C@@H](CCCN)C(=O)N[C@@H](CC(=O)O)C(=O)N[C@H](C)C(=O)N[C@@H](CC(=O)O)C(=O)NCC(=O)N[C@H](CO)C(=O)N[C@@H]([C@@H](C)CC(=O)O)C(=O)N[C@@H](CC(=O)c2ccccc2N)C(=O)O[C@@H]1C , the logged Potency turned out to be inactive

So for C1Cc2[nH]nc(-c3nn[nH]n3)c2C1 , the logged Potency turned out to be inactive

So for C=CCn1c(=O)c2cnc(Nc3ccc(N4CCN(C)CC4)cc3)nc2n1-c1cccc(C(C)(C)O)n1 , the logged Potency turned out to be 83.3 nM (active)

So for COc1cccc2nc(-c3cccs3)nc(NN3C(=O)C=C(C)C3=O)c12 , the logged Potency turned out to be 469 nM (active)

So for Cc1cc(Nc2ncnc3ccc(-c4ccc(CNCCS(C)(=O)=O)o4)cc23)ccc1Oc1ccn2ncnc2c1 , the logged Potency turned out to be 16600 nM (active)

So for C1=CCOCc2cc(ccc2OCCN2CCCC2)Nc2nccc(n2)-c2cccc(c2)OCC1 , the logged Potency turned out to be 6620 nM (active)

So for OCc1ccc(-c2ccc(-c3ccc(CO)s3)o2)s1 , the logged Potency turned out to be 7.4 nM (active)

So for Nc1ccccc1NC(=O)c1ccc(CNc2nccc(-c3cccnc3)n2)cc1 , the logged Potency turned out to be 1050 nM (active)

###

Test system: HaCat
Experiment Notes: Cytotoxic Profiling of Annotated Libraries Using Quantitative High-Throughput Screening (AID 1296008); further: nearly all actives have a fitted effect of over 60% in size
Recorded Conditions: Five cell lines viability, CellTiter-Glo ATP luminescence, 48-72 h
Inconclusive results are not listed. Activity calls are given as the source filed them. The call rests on the fitted dose curve; in most records, active means well fitted inhibition curve with a large enough effect; inconclusive means small, poorly fitted or top-dose-only effect; inactive means flat fitted curve, though single readings scatter.
Bench note: report the call from active, inactive

As a guide, the following entries are already answered.
COC(=O)Nc1ccc(-c2nc(N3CCOCC3)c3cnn(C4CCN(Cc5cccnc5)CC4)c3n2)cc1 :: active
Cc1ccc(S(=O)(=O)Nc2cc(Cl)ccc2C(=O)Nc2nc(-c3ccccc3)cs2)cc1 :: inactive
COC(=O)[C@]12CCC(C)(C)C[C@@H]1[C@@H]1C(=O)C=C3[C@@]4(C)C=C(C#N)C(=O)C(C)(C)[C@@H]4CC[C@@]3(C)[C@]1(C)CC2 :: active
CC=C1NC(=O)[C@H]2CSSCCC=C[C@H](CC(=O)N[C@H](C(C)C)C(=O)N2)OC(=O)[C@H](C(C)C)NC1=O :: active
O=C(NCCS(=O)(=O)c1ccc(C(F)(F)F)cn1)c1ccc(Cl)cc1 :: inactive

Now let's try a different one.
Can you look up the reported call for CC[C@@H]1C(=O)N(C)c2cnc(Nc3ccc(C(=O)NC4CCC(N5CCN(CC6CC6)CC5)CC4)cc3OC)nc2N1C(C)C (stereo partly drawn) for me?
active

###

Experiment Notes: Quantitative High-Throughput drug screen in 47 multiple myeloma cell lines against the NCATS MIPE library collection: KHM11_PLB cell viability assay (AID 1918962); further: nearly all actives have a fitted effect of over 35% in size
Recorded Conditions: KHM11 myeloma cell viability, CellTiter-Glo ATP luminescence, 48 h; series mostly up to 45.8 µM
Inconclusive results are not listed. Active and inactive are the calls of the source. The call rests on the fitted dose curve; in most records, active means well fitted cell-killing curve with a large enough effect; inconclusive means small, poorly fitted or top-dose-only effect, or effect the other way; inactive means no such curve, though single readings can be large or run the other way.
Bench note: report the call from 1.0 for active, 0.0 for inactive

As a guide, the following entries are already answered.
COc1cc(C)c(Sc2cnc(NC(=O)c3ccc(CNC(C)C(C)C)cc3)s2)cc1C(=O)N1CCN(C(C)=O)CC1 (stereo not drawn) :: 1.0
CC(=O)Nc1sc2c(c1-c1nc3ccccc3s1)CNC2 :: 1.0
Cn1c(CNc2ccc(C(=N)N)cc2)nc2cc(C(=O)N(CCC(=O)O)c3ccccn3)ccc21 :: 0.0
Clc1cccc(-c2nnnn2Cc2cccnc2)c1Cl :: 0.0
Cc1ccc(C(N)=O)cc1Nc1nccc(-c2cn(C(C)C)c3cnccc23)n1 :: 1.0
COCCn1c2c([n+](Cc3cnccn3)c1C)C(=O)c1ccccc1C2=O :: 1.0

Can you look up the reported call for COCCOc1ccc2c(c1)ncn2-c1ccc2cccc(N3CCC(N)CC3)c2n1 for me?
1.0

Can you look up the reported call for Nc1ccccc1NC(=O)c1ccc(CNC(=O)OCc2cccnc2)cc1 for me?
1.0

Can you look up the reported call for NC(=O)Nc1cc(-c2cccc(F)c2)sc1C(=O)N[C@H]1CCCNC1 for me?
1.0

Can you look up the reported call for CCCCN1CCC(CNC(=O)c2c3n(c4ccccc24)CCCO3)CC1 for me?
1.0

Can you look up the reported call for O=C(c1ccc(Nc2nccc(-c3cc4ccccc4s3)n2)cc1)N1CCC(N2CCCC2)CC1 for me?
1.0

Can you look up the reported call for COc1cccc2nc(-c3cccs3)nc(NN3C(=O)C=C(C)C3=O)c12 for me?
1.0

Can you look up the reported call for CN1CCC(CNc2ccc3ncc(-c4cccc(OC(F)(F)F)c4)n3n2)CC1 for me?
1.0

Can you look up the reported call for OCc1ccc(-c2ccc(-c3ccc(CO)s3)o2)s1 for me?
1.0

Can you look up the reported call for CC[C@@H]1C(=O)N(C)c2cnc(Nc3ccc(C(=O)NC4CCC(N5CCN(CC6CC6)CC5)CC4)cc3OC)nc2N1C(C)C (stereo partly drawn) for me?
1.0

Can you look up the reported call for CCC[C@H](NC(=O)C(C#N)=Cc1cccc(Br)n1)c1ccccc1 for me?
1.0

Can you look up the reported call for CNC(=O)c1cc(Oc2ccc(NC(=O)Nc3cc(C(C)(C)C)nn3-c3ccc4ncccc4c3)c(F)c2)ccn1 for me?
1.0

Can you look up the reported call for CN(C)CCCN=c1c2ccccc2n(C)c2[nH]c(=O)n(C)c(=O)c12 for me?
1.0
